assay: yeast display, Sf9 membrane polyspecificity reagent, FACS + sequencing; frameworks hold sequencing errors
READOUT NAME: polyreactivity (PSR sort gate)

POLYMER SEQUENCE: QVQLVESGGGLVQAGGSLRLSCAASGITFQYNAMGWYRQAPGKERELVATIRRGGITKYADSVKGRFTISRDNAKNTVSLQMNSLKPEDSAVYYCAADFWYYQYPYGGGGYWGQGTQVTVSS
READOUT NAME: polyreactivity (PSR sort gate)
ASSAY RESULT: low polyreactivity

POLYMER SEQUENCE: QVQLVESGGGLVQAGGSLRVSCAASGSTFVYYAMGWYRQAPGKERELVAAITASGGGTYYADSVKGRFTISRDNAKNTVYLQMNSLKPEDTAVYYCNRGYDYWGQGTQVTVSS
READOUT NAME: polyreactivity (PSR sort gate)
ASSAY RESULT: low polyreactivity

POLYMER SEQUENCE: QVQIVESGGGLVQAGGSLRLSCAASGFTFVINDMGWYRQAPGKERELVADITSGGDTYYADSVKGRFTISRDNAKNTVYLQMNSLKPEDTAVYYCAADIYPDWIYLLYGYWGQGTQVTVSS
READOUT NAME: polyreactivity (PSR sort gate)
ASSAY RESULT: low polyreactivity

* * *

assay: yeast display, Sf9 membrane polyspecificity reagent, FACS + sequencing; frameworks hold sequencing errors
READOUT NAME: polyreactivity (PSR sort gate)

POLYMER SEQUENCE: QVHLVESGGGLVQAGGSLRLICAASGFIFRQYAMGWYRQAPGKERELVAAISYRGASTYYADSVKGRFTISRDNAKNTVYLQMNSLKPEDTAVYYCADRYYNPWARVSGYDYWGQGTQVTVSS
READOUT NAME: polyreactivity (PSR sort gate)
ASSAY RESULT: high polyreactivity
--
POLYMER SEQUENCE: QVQLVESGGGLVQAGGSLRLSCAASGRIFKPYVMGWYRQAPGKERELGAAISWGGGRTYYADSVKGRFTISRDNAKNTVYLQMNSLKPEDTAVYYCAAPRRFDYDWGQGTQVTVSS
READOUT NAME: polyreactivity (PSR sort gate)
ASSAY RESULT: low polyreactivity
--
POLYMER SEQUENCE: QVQLVESGGGLVQAGGSLRLSCAASGFIFYDYTMGWYRQAPGKERELVAAISSRGGSTYYADSVKGRFTISRDNAKNTVYLQMNSLKPEDTAVYYCAAYWSQQTYEYWGQGTQVTVSS
READOUT NAME: polyreactivity (PSR sort gate)
ASSAY RESULT: high polyreactivity
--
POLYMER SEQUENCE: QVQLVESGGGLVQAGGSLRLSCAASGSTFRGYVMGWYRQAPGKERELVAAISSGGRTYYADSVKGRFTISRDNAKNTVYLQMNSLKPEDTAVYYCNSNGRDVYYNWAYDYWGQGTQVTVSS
READOUT NAME: polyreactivity (PSR sort gate)
ASSAY RESULT: high polyreactivity
--
POLYMER SEQUENCE: QVQLVESGGGLVQAGGSLRLSCAASGFILYYYAMGWYRQAPGKERELVAAISWSGDSTYYADSVKGRFTISRDNAKNTVYLQMNSLKPEDTAVYYCAATWQLTHRYYWGQGTQVTVSS
READOUT NAME: polyreactivity (PSR sort gate)
ASSAY RESULT: low polyreactivity
--
POLYMER SEQUENCE: QVQLVESGGGLVQAGGSLRVSCAASGLILAYYDMGWYRQAPGKERELVASITGSGGDTYYADSVKGRFTISRDNAKNTVYLQMNSLKPEDTAVYYCAAEYRNVYWIFGVDYWGQGTQVTVSS
READOUT NAME: polyreactivity (PSR sort gate)
ASSAY RESULT: low polyreactivity

Now for a further sequence.
Enquiry: Please look up its polyreactivity (PSR sort gate): "QVQLVESGGGLVQAGGSHRVSCAASGSTFDRYTMGWYRQAPGTERELVAAISISGGSTYYADSVKGRFTISRDNAKNTVYVQMNSLKPEDTAVYYCAARLDTVTDYYYWGQGTQVNVSS"
Return: low polyreactivity

* * *

test: yeast display, Sf9 membrane polyspecificity reagent, FACS + sequencing; frameworks hold sequencing errors
READOUT NAME: polyreactivity (PSR sort gate)

Example entries begin here.
POLYMER SEQUENCE: QVQLVESGGGLVQAGGSLRLSCAASGSILLRNAMGWYRQAPGKERELVAAISRDGGSTYADSVKGRFTISRDNAKNTVYLQMNSLKPEDTAVYYCAKRSYWYDYWGQGTQVTVSS
polyreactivity (PSR sort gate): high polyreactivity

POLYMER SEQUENCE: QVQLVESGVGLVQAGGTLRLSCAASGIIISRYTMGWYRQAPGKERELVAAITSSGITYYADSVKGRFTISRDNAKNTVYLQLNSLKPEDTAVYYCARETYGDYVHYDYWGLGTQVTVSS
polyreactivity (PSR sort gate): low polyreactivity

POLYMER SEQUENCE: QVQLVESGGRLVQAGGSLRLSCAPSGRTFGVYAMGWYRQAPGKERELVAVISSSSGSTYYADSVKGRFTISRDNAKNTVYLQMNSLKPEDTAVYYCAADFFYESFRDDYWGQGTQVTVSS
polyreactivity (PSR sort gate): low polyreactivity

POLYMER SEQUENCE: QVQLVESAGGLVQAGGSLRLSCAASGSTFRLNTMGWYRQEPGNERELVAGISYSGGSTYYADSVNGRFTISRDNAKNTVYLQMNSLKPEDTAVYYCNKRAWFSSKDDYWGQGTQVTVSS
polyreactivity (PSR sort gate): high polyreactivity

Now look at this one.
Enquiry: Quick one: polyreactivity (PSR sort gate) of "QVQLVESGGGLVQAGGSLRLSCAASGITFRCNAMGWYRQAPGKERELVASITGGTDTYYADSVKGRFTISRDNAKKTVYLQMNSLKPEASAVYYCAAPSNQYFRYKRRYYYWGQGTQVTVSS" ?
Return: high polyreactivity

* * *

assay: yeast display, Sf9 membrane polyspecificity reagent, FACS + sequencing; frameworks hold sequencing errors
READOUT NAME: polyreactivity (PSR sort gate)

Here's what some known entries look like.
POLYMER SEQUENCE: QVQLVESGGGLVQAGGSLRLSCAASGRTFRVYAMGWYRQAPGKEREFVAAISYSGGRTNYADSVKGRFTISRDNAKNTVYLQMNSLKPEDTAVYYCARTKQEYTFGQFYLGDYWGQGTQVTVSS
ASSAY RESULT: low polyreactivity
//
POLYMER SEQUENCE: QVQHVESGGGLVQAGGSLRLSCAASGSTFWYAMGWYRQAPGKERELVAAITARGGRTYYADSVKGRFTISRDNAKNTVYLQMNSLKPEDTAVYYCARLSYAGGQWIIAKYDYWGQGTQVTVSS
ASSAY RESULT: high polyreactivity
//
POLYMER SEQUENCE: QVQLVESGGGLVQAGGSLRLSCAASGSTFGHYAMGWYRQAPGKERELVAAISWSGGSTSYADSVKGRFTISRDNAKNTVYLQMNSLKPEDTAVYYCNKRQEWFHFPYTRVYYWGQGTQLTVSS
ASSAY RESULT: low polyreactivity
//
POLYMER SEQUENCE: QVQLVESGGGLVQAGGSLRLSSAASGSIFFRNAMGWYRKAPGKERELVAAISRSGGNTYYADSVKGRFTISRDNAKNTVYLQMNSLKPEDTAVYYCAKYRTLYWYDYWGQGTQVTVSS
ASSAY RESULT: high polyreactivity
//
POLYMER SEQUENCE: QVQLVESGGGLVQAGCSLRLSCAASGSTLYTYAMGWYRQAPGKERELVATISWSGSSTYYADSVKGRFTISRDNAKNTVYLQMNSLKPEDTAVYYCAAQYHYWYRLDYWGQGTQVTVSS
ASSAY RESULT: high polyreactivity

Moving on to the next sequence.
Enquiry: Value lookup for polyreactivity (PSR sort gate); key = "QVQLQESGGGLVQAGGGLRLSCAASGTISGPHVMGWYRQAPGKEREFVAAINVGANTYYADNVKGRFTISRDNAINTVYLQMNSLKPEDTAVYYCAAVYYGDIGHEYWGQGTQVTVSC"
Return: low polyreactivity

* * *

test: yeast display, Sf9 membrane polyspecificity reagent, FACS + sequencing; frameworks hold sequencing errors
READOUT NAME: polyreactivity (PSR sort gate)

POLYMER SEQUENCE: QVQLVESGGGLVQAGGSLRLSCAASGRTFASNDMGWYRQAPGKERELVADINNGARTYYADSVKGRFTISRDNAKNTVYLQMNSLKPEDTAVYYCNARPWYWWEGRYDYWGQGTQVTVSS
ASSAY RESULT: high polyreactivity

POLYMER SEQUENCE: QVQLVESGGGLVQAGGSLRLSCAASGRTFASYAMGWYRQAPGKERELVATIRRSGTSTYYADSVKGRFTISRDNAKNTVYLQMNSLKPEDTAVYYCAALRSLLYRTYGYWGQGTQVTVSS
ASSAY RESULT: low polyreactivity

POLYMER SEQUENCE: QVQLVESGGGLVQAGGSLRLSCAASGSTLYTYAMGWYRQAPGKERELVADISTGGSTYYADSVKGRFTISRDNAKNTVYLQMNSLKPEDTAVYYCAAESWFDPVDYWGQGTQVTVSS
ASSAY RESULT: low polyreactivity

POLYMER SEQUENCE: QVQLVESVGGLVQAGGSLRLSCAASGYTFFYAMGWYRQAPGKERELVASITSAASTTYADSVKGRFTISRDNAKNTVYLQMNSLKPEDTAVYYCAASHSWWFYPGYYYWGQGTQVTVSS
ASSAY RESULT: high polyreactivity

Kindly consider the entry below.
Enquiry: Which measured polyreactivity (PSR sort gate) value corresponds to "QVQLVESGGGLVQAGGSLRLSCAASGGTIGYNAMGWYRQAPGKERELVAAISWSGGTTYYADSVKGRFTISRDNAKNTVYLQMNSLKPEDTAVYYCNVYSRGRDDWGQGTQVTVSS" ?
Return: high polyreactivity

Hello, the source for this data is the nanobody polyreactivity screen of Harvey et al. (2022), in case you need it.
